target: Perilipin-5 (Homo sapiens) + 1-acylglycerol-3-phosphate O-acyltransferase ABHD5 (Homo sapiens) (UniProt Q00G26+Q8WTS1); assay: blockers of ABHD5 binding to perilipin-5 – biochemical, luminescence, confirmation (AID 651612); details: biochemical ABHD5-PLIN5 interaction, at 4 µM;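 further: 0% = DMSO vehicle wells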
Sequence (Q00G26 whole entry, looked up): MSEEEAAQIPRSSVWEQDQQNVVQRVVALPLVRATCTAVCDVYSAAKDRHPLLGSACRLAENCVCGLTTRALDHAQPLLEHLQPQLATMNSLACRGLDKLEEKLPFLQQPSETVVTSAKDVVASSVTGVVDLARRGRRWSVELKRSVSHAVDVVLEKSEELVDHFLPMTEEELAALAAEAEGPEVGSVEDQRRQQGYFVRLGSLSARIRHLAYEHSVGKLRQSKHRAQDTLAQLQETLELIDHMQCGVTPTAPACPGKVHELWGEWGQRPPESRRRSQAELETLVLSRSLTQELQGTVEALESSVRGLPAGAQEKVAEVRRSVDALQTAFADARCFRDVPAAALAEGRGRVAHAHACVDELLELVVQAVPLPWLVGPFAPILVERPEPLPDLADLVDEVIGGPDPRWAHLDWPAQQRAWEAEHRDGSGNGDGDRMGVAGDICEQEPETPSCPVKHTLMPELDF
Sequence (Q8WTS1 whole entry, looked up): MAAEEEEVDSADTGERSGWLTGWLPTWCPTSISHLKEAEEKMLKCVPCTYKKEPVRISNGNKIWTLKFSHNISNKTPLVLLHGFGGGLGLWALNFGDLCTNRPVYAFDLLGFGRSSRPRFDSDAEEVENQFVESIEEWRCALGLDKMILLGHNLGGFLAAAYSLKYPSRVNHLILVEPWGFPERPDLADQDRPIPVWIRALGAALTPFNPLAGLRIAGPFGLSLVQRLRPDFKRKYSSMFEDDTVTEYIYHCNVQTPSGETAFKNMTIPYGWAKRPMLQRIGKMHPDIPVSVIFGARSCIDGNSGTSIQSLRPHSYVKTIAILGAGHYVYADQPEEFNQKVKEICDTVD
In all, about 2,200 compounds went through this assay and about 1,500 (68%) were called active. No stated cut-off is given here; in the data, active means inhibition above about 23%; inactive means the rest. The set was probably picked from earlier hits. The list is a sample of the results.
Use one of these outcomes when replying: active, inactive

[
  {
    "COMPOUND": "CN1CCC[C@@H]1CCO[C@](C)(c1ccccc1)c1ccc(Cl)cc1",
    "LABEL_CLASS": "active"
  },
  {
    "COMPOUND": "CCN1/C(=C\\c2ccc3ccccc3[n+]2CC)Sc2cc(C)ccc21",
    "LABEL_CLASS": "inactive"
  },
  {
    "COMPOUND": "O=C(c1cccnc1)N(c1cc2sc(=O)oc2c2ccccc12)S(=O)(=O)c1ccccc1",
    "LABEL_CLASS": "inactive"
  },
  {
    "COMPOUND": "CC(=O)c1ccc(NC(=O)CCc2nnc3ccc(NCc4ccco4)nn23)cc1",
    "LABEL_CLASS": "inactive"
  },
  {
    "COMPOUND": "O=C(/C=C(O)/C=C/c1ccc(O)cc1)/C=C/c1ccc(O)cc1",
    "LABEL_CLASS": "active"
  },
  {
    "COMPOUND": "O=C(O)c1ccc2c(c1)C(=O)N(c1ccc(/C=C/C(=O)c3ccccc3)cc1)C2=O",
    "LABEL_CLASS": "active"
  }
]

Enquiry: Given CCc1ccc(NC(=O)CSc2nnc(-c3cnccn3)n2Cc2ccco2)cc1 , state the outcome it received in this test.
Return: inactive

Enquiry: Given COc1ccc(C(C[N+](=O)[O-])n2nc(C)cc2C)cc1 (stereo not given) , state the outcome it received in this test.
Return: active

Enquiry: Given C[C@@H]1C[C@@H]2O[C@H]2/C=C\C=C\C(=O)Cc2c(Cl)c(O)cc(O)c2C(=O)O1 , state the outcome it received in this test.
Return: active

Enquiry: Given CC1(C)CCSC(/C=C/c2ccccc2)=N1 , state the outcome it received in this test.
Return: active

---

biological target: Perilipin-5 (Homo sapiens) + 1-acylglycerol-3-phosphate O-acyltransferase ABHD5 (Homo sapiens) (UniProt Q00G26+Q8WTS1); assay: blockers of ABHD5 binding to perilipin-5 – biochemical, luminescence, confirmation (AID 651612); conditions: biochemical ABHD5-PLIN5 interaction, at 4 µM;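 further: 0% = DMSO vehicle wells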
Screen size: about 2,200 compounds; about 1,500 (68%) were called active. Rule as the data show it: active = inhibition above about 23%; inactive = the rest. So high a share suggests a set chosen from earlier hits. Not all results are given here.
Use one of these outcomes when replying: active, inactive

Enquiry: Given CSc1nnc(NC(=O)c2nc(S(=O)(=O)Cc3ccc(C)cc3)ncc2Cl)s1 , state the outcome it received in this test.
Return: active

Enquiry: Given O=C(NCCOCc1ccc(Cl)cc1)c1ncn[nH]1 , state the outcome it received in this test.
Return: inactive

Enquiry: Given CCN(CC)CCN(C(=O)c1ccc2c(c1)CCCC2)c1nc2c(OC)cccc2s1 , state the outcome it received in this test.
Return: inactive

Enquiry: Given O=C1C=C(c2ccc(Cl)cc2)C(=O)N1Nc1ccccc1 , state the outcome it received in this test.
Return: active

Enquiry: Given C[C@@H](CN1CCC[C@H]1CN1C(N)=NC[C@@H]1Cc1ccccc1)N1C[C@@H](Cc2ccccc2)N(CCCC2CCCC2)C1=N , state the outcome it received in this test.
Return: inactive

Enquiry: Given CCn1c(SC)nc(O)c(C(c2ccc(OC)c(O)c2)c2c(O)nc(SC)n(CC)c2=O)c1=O , state the outcome it received in this test.
Return: active

---

molecular target: Perilipin-5 (Homo sapiens) + 1-acylglycerol-3-phosphate O-acyltransferase ABHD5 (Homo sapiens) (UniProt Q00G26+Q8WTS1); assay: blockers of ABHD5 binding to perilipin-5 – biochemical, luminescence, confirmation (AID 651612); settings: biochemical ABHD5-PLIN5 interaction, at 4 µM, stronger effect = higher value;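 further: 0% = DMSO vehicle wells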
Screen size: about 2,200 compounds; about 1,500 (68%) were called active. So high a share suggests a set chosen from earlier hits. Only a sample is shown.
Answer each item with its documented inhibition.
Numbers only, in %.

Return reported inhibition values for all items listed beneath this line.
1. Cc1ccc(-n2nc(-c3ccco3)cc2C(=O)NCc2cccnc2)cc1
2. COc1ccc(CNC(=O)/C(C#N)=C/c2cccc(OC)c2OC)cc1
3. Cc1ccc2nc(-c3ccco3)c(Cc3cccc(Cl)c3)n2c1

Return:
[38.1, 56.6, 26.5]

Enquiry: May I ask what inhibition has been recorded for COc1ccc2c(c1OC)C(=O)OC2Nc1nc(-c2ccccc2)cs1 (centres undefined) ?
Return: 61.3

---

target: Perilipin-5 (Homo sapiens) + 1-acylglycerol-3-phosphate O-acyltransferase ABHD5 (Homo sapiens) (UniProt Q00G26+Q8WTS1); assay: blockers of ABHD5 binding to perilipin-5 – biochemical, luminescence, confirmation (AID 651612); details: biochemical ABHD5-PLIN5 interaction, at 4 µM;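 further: 0% = DMSO vehicle wells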
Screen size: about 2,200 compounds; about 1,500 (68%) were called active. Cut-off read from the data, not from the text of the source: active = inhibition above about 23%; inactive = the rest. The set was probably picked from earlier hits. A selection follows.
Use one of these outcomes when replying: true (1) for active, false (0) for inactive

[
  {
    "COMPOUND": "CCS(=O)(=O)Nc1ccc(C2=NN(S(=O)(=O)c3ccc(F)cc3)C(c3ccco3)C2)cc1 (configuration not stated)",
    "LABEL_CLASS": "false (0)"
  },
  {
    "COMPOUND": "Cc1cc(C)nc(S/C=C/C(=O)c2ccccc2)n1",
    "LABEL_CLASS": "true (1)"
  },
  {
    "COMPOUND": "C=C(C)C(=O)O[C@H]1C/C(C)=C\\C(=O)/C=C(\\C)[C@H](O)[C@@H]2OC(=O)C(=C)[C@@H]21",
    "LABEL_CLASS": "true (1)"
  },
  {
    "COMPOUND": "Cc1cccc(CS(=O)(=O)c2ncc(Cl)c(C(=O)Nc3ccc(F)cc3)n2)c1",
    "LABEL_CLASS": "true (1)"
  },
  {
    "COMPOUND": "CC1=CC(C)(C)Nc2ccc(OC(=O)CN3C(=O)C4CCCCC4C3=O)cc21 (configuration not stated)",
    "LABEL_CLASS": "true (1)"
  },
  {
    "COMPOUND": "NC(=O)c1nsc(C(=O)N(CC(=O)NCc2ccc(F)cc2)Cc2ccco2)c1N",
    "LABEL_CLASS": "false (0)"
  }
]

Enquiry: Given O=C(NC1CCCCC1)C(c1cc2ccccc2o1)n1c(=O)c(-c2ccco2)nc2ccccc21 (configuration not stated) , state the outcome it received in this test.
Return: true (1)

Enquiry: Given c1ccc(CCC2=NCCn3cccc32)cc1 , state the outcome it received in this test.
Return: true (1)

Enquiry: Given O=C(NNc1ccccn1)c1ccc(Cl)nc1 , state the outcome it received in this test.
Return: false (0)

Enquiry: Given CCN(CCCNC(=O)c1ccc2c(c1)NC(=O)CN2C)c1cccc(C)c1 , state the outcome it received in this test.
Return: true (1)

Enquiry: Given O=c1[nH][nH]c2c1[C@H](c1ccc(Cl)cc1)O[C@H](CCc1ccccc1)C2 , state the outcome it received in this test.
Return: false (0)

Enquiry: Given Cc1cccc(NC(=O)c2nc(S(=O)(=O)Cc3ccccc3)ncc2Cl)c1 , state the outcome it received in this test.
Return: true (1)

Enquiry: Given O=C1/C(=C\c2ccc(O)cc2)CCC1CNc1ccc(Cl)cc1 (configuration not stated) , state the outcome it received in this test.
Return: true (1)

Enquiry: Given Cc1cc(-c2n[nH]c(=S)n2/N=C/C(Br)=C/c2ccccc2)n[nH]1 , state the outcome it received in this test.
Return: true (1)

Enquiry: Given COC(C/C=C/C(=O)[C@@H](C)OCc1ccccc1)OC , state the outcome it received in this test.
Return: true (1)

Enquiry: Given O=C(CCl)Nc1ccc(Sc2ccc(NC(=O)CCl)cc2)cc1 , state the outcome it received in this test.
Return: true (1)

Enquiry: Given CC1Cc2ccccc2N1CC(=O)Nc1ccc(S(N)(=O)=O)cc1 (configuration not stated) , state the outcome it received in this test.
Return: false (0)

Enquiry: Given Cc1cccc(C)c1NC(=O)C(c1ccc(C(F)(F)F)cc1)n1c(=O)c(-c2ccco2)nc2ccccc21 (configuration not stated) , state the outcome it received in this test.
Return: true (1)

Enquiry: Given Cc1csc(NC(=O)NC2(C(F)(F)F)Oc3ccccc3O2)n1 , state the outcome it received in this test.
Return: true (1)

Enquiry: Given CN(C)CCCNC(=O)/C=C/c1ccc(OCc2c(F)cccc2Cl)cc1 , state the outcome it received in this test.
Return: false (0)

Enquiry: Given CCC(C(=O)OCCN(CC)CC)c1ccccc1 (configuration not stated) , state the outcome it received in this test.
Return: true (1)

Enquiry: Given CCOC(=O)C(=Cc1ccccc1)C(=O)c1ccccc1 , state the outcome it received in this test.
Return: true (1)

Enquiry: Given Nc1cccc(OCCCCCOc2cccc(N)c2)c1 , state the outcome it received in this test.
Return: false (0)

Enquiry: Given CC1(Oc2ccccc2-c2ccno2)CCN(Cc2ccc(-c3ccccc3)o2)C1 (configuration not stated) , state the outcome it received in this test.
Return: false (0)

Enquiry: Given O=C(/C(=C/c1cccc(Cl)c1)c1nc2ccccc2[nH]1)c1ccccc1 , state the outcome it received in this test.
Return: true (1)

Enquiry: Given Cc1cccc(C)c1NC(=O)C(c1cccc2ccccc12)n1c(=O)c(-c2ccco2)nc2ccccc21 (configuration not stated) , state the outcome it received in this test.
Return: true (1)
